Entries annotated with measured % Inhibition
System: P. falciparum stage V gametocytes
Set-up: BacTiter-Glo ATP luminescence viability of purified stage V gametocytes in 384-well plates, per cent inhibition versus DMSO
MEASUREMENT_CONDITIONS: 48 h, 5 µM; inhibitor
The whole screen tested about 13,000 compounds, of which about 3,200 (25%) showed an effect of 50% or more. The list shows a part of the results.
Please respond with the number in % and leave the unit unwritten.

Guide cases for % Inhibition, answers given:
COc1ccc(-c2cncc3ccc(C(=O)NCCCn4ccnc4)nc23)cc1 | 77.43
O=C(NCCN1CCCC1)c1cccc(-c2ccc(-c3nc4ccc(F)cc4[nH]3)cc2)c1 | -16.55

Noted % Inhibition for Cc1nnsc1C(=O)Nc1cccc(-c2cccc(-c3nc4ccccc4[nH]3)c2)c1 , tested on P. falciparum stage V gametocytes: 82.4

The molecule COc1ccc(-c2nonc2NC(=O)c2ccc(OC(C)C)cc2)cc1OC on P. falciparum stage V gametocytes: % Inhibition was 61.65

Observed % Inhibition, P. falciparum stage V gametocytes, Cc1nnsc1C(=O)Nc1ccc(-c2cccc(-c3nc4ccc(C(F)(F)F)cc4[nH]3)c2)cc1 : 34.28

Reading of % Inhibition for CCC(CCON1C(N)=NC(N)=NC1(C)C)c1ccc(Cl)cc1 (stereo not shown) with P. falciparum stage V gametocytes: 30.1

% Inhibition of Cc1nnsc1C(=O)Nc1cccc(-c2ccc(-c3nc4ccc(C(F)(F)F)cc4[nH]3)cc2)c1 , assay on P. falciparum stage V gametocytes, is 70.24

Field % Inhibition (system: P. falciparum stage V gametocytes) for entry COc1ccc(C(=O)Nc2nonc2-c2ccc(OC)c(OC)c2)cc1Cl = 30.18
